Tested on: Monoclonal antibody (mAb) 3E7
Assay: Affinity towards anti-beta-endorphin MAb(Clone 3-E7) using [3H][Leu5]-enkephalin as labeled ligand
Where a SMILES comes first, the peptide text is derived from it. [ ]: non-standard residue; d: D form. βAla = NCCC(=O)O
compounds and their reported IC50
Hi! Could you send only the number? It should be in nM, unit omitted.

Record excerpt, results attached:
COMPOUND	SUBJECT OF TEST	IC50, nM
NC(=O)CC[C@H](NC(=O)[C@H](Cc1ccccc1)NC(=O)CNC(=O)CNC(=O)[C@@H](N)Cc1ccccc1)C(=O)O (H-FGGFQ-OH)	Monoclonal antibody (mAb) 3E7	15
CC(C)C[C@H](NC(=O)CNC(=O)CNC(=O)[C@@H](N)Cc1ccc(O)cc1)C(=O)N[C@@H](CO)C(N)=O (H-YGGLS-NH2)	Monoclonal antibody (mAb) 3E7	991
C[C@H](NC(=O)[C@H](Cc1ccccc1)NC(=O)CNC(=O)CNC(=O)[C@@H](N)Cc1ccc(O)cc1)C(=O)O (H-YGGFA-OH)	Monoclonal antibody (mAb) 3E7	32.9

Look up and report measured IC50 for this entry: C[C@H](NC(=O)[C@H](Cc1ccccc1)NC(=O)CNC(=O)CNC(=O)[C@@H](N)Cc1ccc(O)cc1)C(=O)NCCC(N)=O (H-YGGFA[βAla]-NH2) 93.6

Supply reported IC50 belonging to this compound: CSCC[C@H](NC(=O)CNC(=O)CNC(=O)[C@@H](N)Cc1ccc(O)cc1)C(=O)N[C@H](C(=O)O)C(C)C (H-YGGMV-OH) 8780

Supply IC50 value. Item: CC(C)C[C@H](NC(=O)[C@H](Cc1ccccc1)NC(=O)CNC(=O)CNC(=O)[C@@H](N)Cc1ccc(O)cc1)C(N)=O [[LEU5]ENKEPHALIN] 27.3

Give IC50 for the following compound: NC(=O)CC[C@H](NC(=O)[C@H](Cc1ccccc1)NC(=O)CNC(=O)CNC(=O)[C@@H](N)Cc1ccccc1)C(N)=O (H-FGGFQ-NH2) 40.1

Please report the measured IC50 for CSCC[C@H](NC(=O)CNC(=O)CNC(=O)[C@@H](N)Cc1ccc(O)cc1)C(=O)N[C@H](C(N)=O)C(C)C (H-YGGMV-NH2) 14000

---

IC50 values by entry
Test system: Monoclonal antibody (mAb) 3E7
Experiment: Affinity towards anti-beta-endorphin MAb(Clone 3-E7) using [3H][Leu5]-enkephalin as labeled ligand
Where a SMILES comes first, the peptide text is derived from it. [ ]: non-standard residue; d: D form. βAla = NCCC(=O)O

Here's what some known entries look like.
COMPOUND	SUBJECT OF TEST	IC50
CC(C)C[C@H](NC(=O)CNC(=O)CNC(=O)[C@@H](N)Cc1ccc(O)cc1)C(=O)N[C@@H](CO)C(=O)NCCC(=O)O (H-YGGLS[βAla]-OH)	Monoclonal antibody (mAb) 3E7	0.916 µM
CC(C)C[C@H](NC(=O)[C@H](C)NC(=O)CNC(=O)[C@@H](N)Cc1ccc(O)cc1)C(=O)N[C@@H](CCC(N)=O)C(N)=O (H-YGALQ-NH2)	Monoclonal antibody (mAb) 3E7	2.91 µM

Please look at the following compound next.
Provide IC50 value for the following compound: CC(C)C[C@H](NC(=O)CNC(=O)CNC(=O)[C@@H](N)Cc1ccc(O)cc1)C(=O)N[C@@H](CO)C(=O)O (H-YGGLS-OH) 0.726 µM

meta.source: ChEMBL document CHEMBL1150994
